Recorded measurements of IC50, one per entry
- measured-on: C-C chemokine receptor type 5 (Homo sapiens, UniProt P51681)
- Sequence (P51681 whole entry): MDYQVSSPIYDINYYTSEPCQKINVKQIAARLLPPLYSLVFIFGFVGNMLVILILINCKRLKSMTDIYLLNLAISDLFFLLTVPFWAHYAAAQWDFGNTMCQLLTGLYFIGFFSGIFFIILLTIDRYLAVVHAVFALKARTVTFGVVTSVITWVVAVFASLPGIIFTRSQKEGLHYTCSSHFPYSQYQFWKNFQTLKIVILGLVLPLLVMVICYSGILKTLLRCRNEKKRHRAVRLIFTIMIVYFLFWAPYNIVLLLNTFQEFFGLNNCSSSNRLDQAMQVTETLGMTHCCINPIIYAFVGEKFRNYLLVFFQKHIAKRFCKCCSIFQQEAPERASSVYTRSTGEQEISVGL
- experimental-details: Inhibitory concentration for displacement of [125I]-MIP-1 alpha from recombinant human CC chemokine receptor 5 (CCR5) expressed in CHO cell
endpoint: IC50 (nM)

[
  {
    "smiles-str": "CC[C@H](C)[C@H](C(=O)O)N1C[C@H](CN2CCC(c3cc(Cc4ccc5c(c4)OCO5)nn3CC)CC2)[C@@H](c2cccc(F)c2)C1",
    "readout-unit": "nM",
    "value-measured": 0.5
  },
  {
    "smiles-str": "CCn1nc(Cc2ccc(O)cc2)cc1C1CCN(C[C@H]2CN([C@@H](C(=O)O)C(C)(C)C)C[C@@H]2c2cccc(F)c2)CC1",
    "readout-unit": "nM",
    "value-measured": 1.1
  },
  {
    "smiles-str": "CCn1nc(CC2CCCCC2)cc1C1CCN(C[C@H]2CN([C@@H](C(=O)O)C(C)C)C[C@@H]2c2cccc(F)c2)CC1",
    "readout-unit": "nM",
    "value-measured": 2.3
  },
  {
    "smiles-str": "CC[C@H](C)[C@H](C(=O)O)N1C[C@H](CN2CCC(c3cc(Cc4cc(C(F)(F)F)cc(C(F)(F)F)c4)nn3CC)CC2)[C@@H](c2cccc(F)c2)C1",
    "readout-unit": "nM",
    "value-measured": 2.1
  },
  {
    "smiles-str": "CC[C@H](C)[C@H](C(=O)O)N1C[C@H](CN2CCC(c3cc(Cc4ccc(Oc5ccccc5)cc4)nn3CC)CC2)[C@@H](c2cccc(F)c2)C1",
    "readout-unit": "nM",
    "value-measured": 0.4
  },
  {
    "smiles-str": "CC[C@H](C)[C@H](C(=O)O)N1C[C@H](CN2CCC(c3cc(Cc4ccc(OC5CC5)cc4)nn3CC)CC2)[C@@H](c2cccc(F)c2)C1",
    "readout-unit": "nM",
    "value-measured": 0.3
  },
  {
    "smiles-str": "CCn1nc(Cc2ccc(OC(C)(C)C)cc2)cc1C1CCN(C[C@H]2CN([C@@H](C(=O)O)C(C)C)C[C@@H]2c2cccc(F)c2)CC1",
    "readout-unit": "nM",
    "value-measured": 0.8
  },
  {
    "smiles-str": "CC[C@@H](C)[C@H](C(=O)O)N1C[C@H](CN2CCC(c3cc(Cc4ccc(OC5CCC5)cc4)nn3CC)CC2)[C@@H](c2cccc(F)c2)C1",
    "readout-unit": "nM",
    "value-measured": 0.4
  },
  {
    "smiles-str": "CCn1nc(Cc2ccccc2F)cc1C1CCN(C[C@H]2CN([C@@H](C(=O)O)C3CCCCC3)C[C@@H]2c2cccc(F)c2)CC1",
    "readout-unit": "nM",
    "value-measured": 0.5
  },
  {
    "smiles-str": "CCn1nc(Cc2ccc(C(C)(C)C)cc2)cc1C1CCN(C[C@H]2CN([C@@H](C(=O)O)C(C)(C)C)C[C@@H]2c2cccc(F)c2)CC1",
    "readout-unit": "nM",
    "value-measured": 0.4
  },
  {
    "smiles-str": "CCn1nc(Cc2ccc(Oc3ccccc3)cc2)cc1C1CCN(C[C@H]2CN([C@@H](C(=O)O)C(C)C)C[C@@H]2c2cccc(F)c2)CC1",
    "readout-unit": "nM",
    "value-measured": 0.6
  },
  {
    "smiles-str": "CC[C@H](C)[C@H](C(=O)O)N1C[C@H](CN2CCC(c3cc(Cc4ccc(OC(C)(C)C)cc4)nn3CC)CC2)[C@@H](c2cccc(F)c2)C1",
    "readout-unit": "nM",
    "value-measured": 1.3
  },
  {
    "smiles-str": "CCn1nc(Cc2ccc(OC3CC3)cc2)cc1C1CCN(C[C@H]2CN([C@@H](C(=O)O)C(C)C)C[C@@H]2c2cccc(F)c2)CC1",
    "readout-unit": "nM",
    "value-measured": 1
  }
]

###

- measured-on: C-C chemokine receptor type 5 (Homo sapiens, UniProt P51681)
- experimental-details: Inhibitory concentration for displacement of [125I]-MIP-1 alpha from recombinant human CC chemokine receptor 5 (CCR5) expressed in CHO cell
endpoint: log10 IC50 (log10 of the value in nM)

[
  {
    "smiles-str": "CCn1nc(Cc2cc(C(F)(F)F)cc(C(F)(F)F)c2)cc1C1CCN(C[C@H]2CN([C@@H](C(=O)O)C(C)C)C[C@@H]2c2cccc(F)c2)CC1",
    "log10 IC50": 0.51
  },
  {
    "smiles-str": "CCn1nc(Cc2ccc(OC)c(C#N)c2)cc1C1CCN(C[C@H]2CN([C@@H](C(=O)O)C(C)C)C[C@@H]2c2cccc(F)c2)CC1",
    "log10 IC50": -0.10
  },
  {
    "smiles-str": "CCn1nc(CC2CCCCC2)cc1C1CCN(C[C@H]2CN([C@@H](C(=O)O)C(C)(C)C)C[C@@H]2c2cccc(F)c2)CC1",
    "log10 IC50": 0.04
  },
  {
    "smiles-str": "CCn1nc(Cc2ccc(C#N)cc2)cc1C1CCN(C[C@H]2CN([C@@H](C(=O)O)C3CCCCC3)C[C@@H]2c2cccc(F)c2)CC1",
    "log10 IC50": 0.23
  },
  {
    "smiles-str": "CCn1nc(Cc2ccc(OC3CC3)cc2)cc1C1CCN(C[C@H]2CN([C@@H](C(=O)O)C(C)(C)C)C[C@@H]2c2cccc(F)c2)CC1",
    "log10 IC50": -0.40
  },
  {
    "smiles-str": "CCn1nc(Cc2ccccc2F)cc1C1CCN(C[C@H]2CN([C@@H](C(=O)O)C(C)C)C[C@@H]2c2cccc(F)c2)CC1",
    "log10 IC50": 0.34
  },
  {
    "smiles-str": "CCn1nc(Cc2ccc(S(C)(=O)=O)cc2)cc1C1CCN(C[C@H]2CN([C@@H](C(=O)O)C3CCCCC3)C[C@@H]2c2cccc(F)c2)CC1",
    "log10 IC50": 0.36
  },
  {
    "smiles-str": "CC[C@H](C)[C@H](C(=O)O)N1C[C@H](CN2CCC(c3cc(Cc4ccc(OCc5ccccc5)cc4)nn3CC)CC2)[C@@H](c2cccc(F)c2)C1",
    "log10 IC50": -0.15
  },
  {
    "smiles-str": "CC[C@@H](C)[C@H](C(=O)O)N1C[C@H](CN2CCC(c3cc(Cc4ccc(Oc5ccccc5)cc4)nn3CC)CC2)[C@@H](c2cccc(F)c2)C1",
    "log10 IC50": -0.30
  },
  {
    "smiles-str": "CC[C@H](C)[C@H](C(=O)O)N1C[C@H](CN2CCC(c3cc(Cc4ccc(C(C)C)cc4)nn3CC)CC2)[C@@H](c2cccc(F)c2)C1",
    "log10 IC50": -0.52
  },
  {
    "smiles-str": "CCn1nc(Cc2ccc(-c3ccccc3)cc2)cc1C1CCN(C[C@H]2CN([C@@H](C(=O)O)C(C)(C)C)C[C@@H]2c2cccc(F)c2)CC1",
    "log10 IC50": -0.22
  },
  {
    "smiles-str": "CCn1nc(Cc2ccc(-c3ccccc3)cc2)cc1C1CCN(C[C@H]2CN([C@@H](C(=O)O)C3CCCCC3)C[C@@H]2c2cccc(F)c2)CC1",
    "log10 IC50": -0.52
  },
  {
    "smiles-str": "CCn1nc(Cc2ccc(Cl)cc2)cc1C1CCN(C[C@H]2CN([C@@H](C(=O)O)C3CCCCC3)C[C@@H]2c2cccc(F)c2)CC1",
    "log10 IC50": -0.05
  },
  {
    "smiles-str": "CCn1nc(Cc2ccc(OC3CCC3)cc2)cc1C1CCN(C[C@H]2CN([C@@H](C(=O)O)C(C)C)C[C@@H]2c2cccc(F)c2)CC1",
    "log10 IC50": -0.22
  },
  {
    "smiles-str": "CCn1nc(Cc2ccc(OC3CC3)cc2)cc1C1CCN(C[C@H]2CN([C@@H](C(=O)O)C3CCCCC3)C[C@@H]2c2cccc(F)c2)CC1",
    "log10 IC50": -0.70
  },
  {
    "smiles-str": "CC[C@@H](C)[C@H](C(=O)O)N1C[C@H](CN2CCC(c3cc(Cc4ccc(OCC(F)(F)F)cc4)nn3CC)CC2)[C@@H](c2cccc(F)c2)C1",
    "log10 IC50": -0.30
  },
  {
    "smiles-str": "CCn1nc(Cc2cc(F)cc(F)c2)cc1C1CCN(C[C@H]2CN([C@@H](C(=O)O)C3CCCCC3)C[C@@H]2c2cccc(F)c2)CC1",
    "log10 IC50": -0.05
  },
  {
    "smiles-str": "CC[C@@H](C)[C@H](C(=O)O)N1C[C@H](CN2CCC(c3cc(Cc4cccc(CN)c4)nn3CC)CC2)[C@@H](c2cccc(F)c2)C1",
    "log10 IC50": 0.43
  },
  {
    "smiles-str": "CCn1nc(Cc2cc(C(F)(F)F)cc(C(F)(F)F)c2)cc1C1CCN(C[C@H]2CN([C@@H](C(=O)O)C(C)(C)C)C[C@@H]2c2cccc(F)c2)CC1",
    "log10 IC50": 0.36
  },
  {
    "smiles-str": "CCn1nc(Cc2ccc(Cl)cc2)cc1C1CCN(C[C@H]2CN([C@@H](C(=O)O)C(C)C)C[C@@H]2c2cccc(F)c2)CC1",
    "log10 IC50": 0.11
  },
  {
    "smiles-str": "CCOc1ccc(Cc2cc(C3CCN(C[C@H]4CN([C@@H](C(=O)O)[C@@H](C)CC)C[C@@H]4c4cccc(F)c4)CC3)n(CC)n2)cc1F",
    "log10 IC50": -0.15
  },
  {
    "smiles-str": "CCn1nc(Cc2ccc(OC(F)F)cc2)cc1C1CCN(C[C@H]2CN([C@@H](C(=O)O)C(C)(C)C)C[C@@H]2c2cccc(F)c2)CC1",
    "log10 IC50": -0.30
  },
  {
    "smiles-str": "CCn1nc(Cc2ccc(C(F)(F)F)cc2)cc1C1CCN(C[C@H]2CN([C@@H](C(=O)O)C(C)C)C[C@@H]2c2cccc(F)c2)CC1",
    "log10 IC50": 0.30
  },
  {
    "smiles-str": "CC[C@@H](C)[C@H](C(=O)O)N1C[C@H](CN2CCC(c3cc(Cc4ccc(OC(F)(F)F)cc4)nn3CC)CC2)[C@@H](c2cccc(F)c2)C1",
    "log10 IC50": -0.22
  },
  {
    "smiles-str": "CCOc1cccc(Cc2cc(C3CCN(C[C@H]4CN([C@@H](C(=O)O)[C@H](C)CC)C[C@@H]4c4cccc(F)c4)CC3)n(CC)n2)c1",
    "log10 IC50": -0.10
  },
  {
    "smiles-str": "CC[C@H](C)[C@H](C(=O)O)N1C[C@H](CN2CCC(c3cc(Cc4ccc(OC5CCC5)cc4)nn3CC)CC2)[C@@H](c2cccc(F)c2)C1",
    "log10 IC50": 0.11
  }
]
